# systemName: yeast α-GLy (α-glucosidase, Sigma G0660) (Saccharomyces cerevisiae)
# Construct: purchased Sigma G0660
# Sequence (P53341 whole entry): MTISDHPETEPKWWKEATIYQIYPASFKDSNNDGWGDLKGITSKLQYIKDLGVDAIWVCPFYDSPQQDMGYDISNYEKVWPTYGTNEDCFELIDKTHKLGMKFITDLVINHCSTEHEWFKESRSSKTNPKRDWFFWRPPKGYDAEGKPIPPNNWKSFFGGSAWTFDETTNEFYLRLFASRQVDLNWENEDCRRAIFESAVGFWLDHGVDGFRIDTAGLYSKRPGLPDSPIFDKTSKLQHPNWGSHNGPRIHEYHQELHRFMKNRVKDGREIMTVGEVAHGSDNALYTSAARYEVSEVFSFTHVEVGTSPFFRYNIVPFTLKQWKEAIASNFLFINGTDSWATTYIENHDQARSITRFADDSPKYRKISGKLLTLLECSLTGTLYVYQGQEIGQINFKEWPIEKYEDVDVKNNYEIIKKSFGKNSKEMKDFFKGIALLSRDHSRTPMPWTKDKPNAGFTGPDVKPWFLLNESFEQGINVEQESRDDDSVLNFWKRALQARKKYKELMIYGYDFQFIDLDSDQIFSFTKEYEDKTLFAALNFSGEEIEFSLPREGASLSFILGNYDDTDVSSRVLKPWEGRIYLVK
# assayProtocol: biochemical
# Assay type: biochemical
# recordedConditions: IC50 ± SE, α-glucosidase inhibition, yeast α-glucosidase, 37°C, pH 6.8
# Method: S1. Materials and Methods […] glucosidase inhibition assay. α-Glucosidase enzyme inhibition assay was carried out in a 96-well microplate. […] concentrations of 256, 64, 16, 4 and 1 µg/mL. In a 96-well plate, a reaction mixture containing 20 μL of phosphate buffer (100 mM; pH 6.8), 20 μL of α-glucosidase (0.3 U/mL, Sigma G0660) (this concentration was determined by a series of α-glucosidase […] or substrate in negative control. Back ground was determined by volume of buffer as […]
pIC50: −log10 of the molar value.
Parameter: pIC50. Scope: all listed entries.

| compound | pIC50 |
| --- | --- |
| COC(=O)[C@]1(C)CCC[C@]2(C)[C@H]3C[C@H]4C(C(C)C)=C[C@]3(CC[C@H]21)[C@@H]1c2[nH]c3ccccc3c2-c2c([nH]c3ccccc23)[C@@H]14 [Compound 34] | < 3.59 |
| C#CCOC(=O)C1(C)CCCC2(C)C1CCC13C=C(C(C)C)C(CC12)C1=C3C(=O)C=CC1=O (stereo not drawn) [Compound 48] | 6.17 |
| C#CCNC(=O)[C@]1(C)CCC[C@]2(C)[C@H]3C[C@H]4C(C(C)C)=C[C@]3(CC[C@H]21)[C@@H]1C(=O)CCC(=O)[C@@H]14 [Compound 10] | < 3.59 |
| CC(C)C1=C[C@@]23CC[C@@H]4[C@](C)(CCC[C@@]4(C)C(=O)O)[C@H]2C[C@@H]1[C@H]1C(=O)C=CC(=O)[C@H]13 [Compound 1, quinopimaric acid] | 4.22 |
| COC(=O)[C@]1(C)CCC[C@]2(C)[C@H]3C[C@H]4C(C(C)C)=C[C@]3(CC[C@H]21)[C@@H]1C(=O)CC[C@H](OCCC#N)[C@@H]14 [Compound 16] | < 3.59 |
| COC(=O)[C@]1(C)CCC[C@]2(C)[C@H]3C[C@H]4C(C(C)C)=C[C@]3(CC[C@H]21)[C@H]1[C@@H]4[C@@H](OCCC(N)=NO)CC[C@@H]1OCCC(N)=NO [Compound 23] | < 3.59 |
